- experimental system: YadA (Yersinia adhesin A) displayed on E. coli BL21 DE3 cells (Yersinia enterocolitica) (UniProt P0C2W0)
- Sequence (P0C2W0 whole entry): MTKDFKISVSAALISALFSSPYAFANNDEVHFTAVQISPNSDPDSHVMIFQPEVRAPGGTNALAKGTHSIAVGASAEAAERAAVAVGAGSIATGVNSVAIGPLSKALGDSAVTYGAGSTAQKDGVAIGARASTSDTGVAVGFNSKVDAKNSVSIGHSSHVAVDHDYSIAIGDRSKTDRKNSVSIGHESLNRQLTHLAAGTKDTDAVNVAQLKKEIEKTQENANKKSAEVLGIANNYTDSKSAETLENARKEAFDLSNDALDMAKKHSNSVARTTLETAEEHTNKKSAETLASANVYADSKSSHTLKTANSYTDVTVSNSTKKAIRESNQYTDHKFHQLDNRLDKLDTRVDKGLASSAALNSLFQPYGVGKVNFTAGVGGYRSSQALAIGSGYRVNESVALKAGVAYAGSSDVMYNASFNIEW
- experimental protocol: fluorescence cell-binding assay (eluted FAM-aptamer)
- measurement setup: 1.4 mM Mg2+; whole cells; authors say true Kd for pure YadA is probably higher; Kd: PBS 1x pH 7.4 (137 mM NaCl, 2.7 mM KCl, 8 mM Na2HPO4, 2 mM KH2PO4) + 1.4 mM MgCl2, 37 C, 75 min, 0-100 nM aptamer; sensor: inactivated cells in PBS 1x pH 7.
metric: Kd (nM)
Give bare numbers, in nM.

Problem: Reported Kd, sequence ATCCAGAGTGACGCAGCATGACAGACGGGAGAGACACGACGGGGGCGGGGAGTGAGAAGCGCGCGCTGAATGTCGTTGGTGGCCC [Apt1 (FAM)] : ____
Result: 11
